Attribution: the supplement of paper PMC10307832

Test system: NCI-H2170
procedure-summary: relative viability (nuclei count vs DMSO), 5 days (fraction); higher = more cells survive
setup-conditions: first compound 0.8 µM
Flag rule - relative viability less than 0.6 flags Criterion met; the remaining entries get Criterion not met.

For orientation, consider the following solved cases.
**Q:** Lab note: confirm whether the reported relative viability for this molecule is below 0.6, equality not counting. molecule: Nc1cccc2c1CN(C1CCC(=O)NC1=O)C2=O (stereo unspecified) [Lenalidomide] + Cc1nc(NC(=O)N2CCC[C@H]2C(N)=O)sc1-c1ccnc(C(C)(C)C(F)(F)F)c1 [Alpelisib] (partner 2 µM)
**A:** Criterion not met

**Q:** Lab note: confirm whether the reported relative viability for this molecule is below 0.6, equality not counting. molecule: Nc1cccc2c1CN(C1CCC(=O)NC1=O)C2=O (stereo unspecified) [Lenalidomide] + CC(=O)c1c(C)c2cnc(Nc3ccc(N4CCNCC4)cn3)nc2n(C2CCCC2)c1=O [Palbociclib] (partner 0.5 µM)
**A:** Criterion met

**Q:** Lab note: confirm whether the reported relative viability for this molecule is below 0.6, equality not counting. molecule: Nc1cccc2c1CN(C1CCC(=O)NC1=O)C2=O (stereo unspecified) [Lenalidomide] + Nc1ncn([C@H]2C[C@H](O)[C@@H](CO)O2)c(=O)n1 [Decitabine] (partner 2 µM)
**A:** Criterion met

**Q:** Lab note: confirm whether the reported relative viability for this molecule is below 0.6, equality not counting. molecule: Nc1cccc2c1CN(C1CCC(=O)NC1=O)C2=O (stereo unspecified) [Lenalidomide] + O=C(CCCCCCC(=O)Nc1ccccc1)NO [Vorinostat] (partner 1 µM)
**A:** Criterion not met

Further cases:
**Q:** Lab note: confirm whether the reported relative viability for this molecule is below 0.6, equality not counting. molecule: Nc1cccc2c1CN(C1CCC(=O)NC1=O)C2=O (stereo unspecified) [Lenalidomide] + C[C@@H](Oc1cc(-c2cnn(C3CCNCC3)c2)cnc1N)c1c(Cl)ccc(F)c1Cl [Crizotinib] (partner 1 µM)
**A:** Criterion not met

----------
Tested on: NCI-H1355
procedure-summary: relative viability (nuclei count vs DMSO), 5 days (fraction); higher = more cells survive
setup-conditions: first compound 2 µM
Each entry below lists one item and its recorded relative viability value.
Kindly provide the number alone.

In the examples that follow, each entry is paired with its recorded relative viability.
**Q:** relative viability of CN1CCN(CCOc2cc(OC3CCOCC3)c3c(Nc4c(Cl)ccc5c4OCO5)ncnc3c2)CC1 [Saracatinib] + CS(=O)(=O)N1CCN(Cc2cc3nc(-c4cccc5[nH]ncc45)nc(N4CCOCC4)c3s2)CC1 [Pictilisib] (partner 1 µM) on NCI-H1355?
**A:** 0.461

**Q:** relative viability of CN1CCN(CCOc2cc(OC3CCOCC3)c3c(Nc4c(Cl)ccc5c4OCO5)ncnc3c2)CC1 [Saracatinib] + COc1cccc2cc(-c3nc([C@H]4CC[C@H](C(=O)O)CC4)n4ncnc(N)c34)[nH]c12 [OSI-027] (partner 0.5 µM) on NCI-H1355?
**A:** 0.323

**Q:** relative viability of Cc1csc(=NC2CCCCC2)n1/N=C/c1ccc(O)c(O)c1O [MIM1] + CC1(C)CCC(c2ccc(Cl)cc2)=C(CN2CCN(c3ccc(C(=O)NS(=O)(=O)c4ccc(N[C@H](CCN5CCOCC5)CSc5ccccc5)c(S(=O)(=O)C(F)(F)F)c4)cc3)CC2)C1 [Navitoclax] (partner 0.5 µM) on NCI-H1355?
**A:** 1.07

Further cases:
**Q:** relative viability of CN1CCN(CCOc2cc(OC3CCOCC3)c3c(Nc4c(Cl)ccc5c4OCO5)ncnc3c2)CC1 [Saracatinib] + O=C(CCCCCCC(=O)Nc1ccccc1)NO [Vorinostat] (partner 1 µM) on NCI-H1355?
**A:** 0.587

**Q:** relative viability of CN1CCN(CCOc2cc(OC3CCOCC3)c3c(Nc4c(Cl)ccc5c4OCO5)ncnc3c2)CC1 [Saracatinib] + CC(=O)c1c(C)c2cnc(Nc3ccc(N4CCNCC4)cn3)nc2n(C2CCCC2)c1=O [Palbociclib] (partner 0.5 µM) on NCI-H1355?
**A:** 0.371

**Q:** relative viability of CN1CCN(CCOc2cc(OC3CCOCC3)c3c(Nc4c(Cl)ccc5c4OCO5)ncnc3c2)CC1 [Saracatinib] + CC1(C)CCC(c2ccc(Cl)cc2)=C(CN2CCN(c3ccc(C(=O)NS(=O)(=O)c4ccc(N[C@H](CCN5CCOCC5)CSc5ccccc5)c(S(=O)(=O)C(F)(F)F)c4)cc3)CC2)C1 [Navitoclax] (partner 0.5 µM) on NCI-H1355?
**A:** 0.901
